Assay: Pharmacokinetics of ciprofol in rats pretreated with psoralen, clopidogrel or CMC
Assay type: in vivo, rat
Conditions: SD, rat, plasma, iv, 27 mg/kg, Psoralen(27mg/kg)group, ciprofol 2.4 mg·kg^-1 i.v., T 20.00 min; rats No.1-8 and Mean
Description: 5 μL of IS solution (2.5 μg·mL^-1 D6-ciprofol) was added to 100 μL of plasma and mixed. Then, 300 μL of acetonitrile was added. […] Twenty-four SD rats were randomly and equally divided into three groups: the control group, psoralen group and clopidogrel group. […] The duration of loss of righting reflex (LORR) in each rat was measured. […] The plasma was processed and measured as described in Section 2.4.3, and DAS 2.0 software and a noncompartmental model were used to analyse the pharmacokinetic parameters. […]
measureName: concentration at 20 min

compoundstructure=CC(C)c1cccc([C@H](C)C2CC2)c1O observed="203 ng/mL"

----------
experiment: Pharmacokinetics of ciprofol in rats pretreated with psoralen, clopidogrel or CMC; type: in vivo, rat; conditions: SD, rat, plasma, intravenous, 2.4 mg/kg, rats, Control group (0.5% CMC gavage 7 d), ciprofol 2.4 mg·kg^-1 i.v., n = 8
measureName: Cmax (ng/mL)

compound="CC(C)c1cccc([C@H](C)C2CC2)c1O [ciprofol]" measurename=Cmax observed=1550

----------
Assay: Pharmacokinetics of ciprofol in rats pretreated with psoralen, clopidogrel or CMC
Format: in vivo, rat
Details: SD, rat, plasma, intravenous, 2.4 mg/kg, rats, Control group (0.5% CMC gavage 7 d), ciprofol 2.4 mg·kg^-1 i.v., n = 8
Experimental: 5 μL of IS solution (2.5 μg·mL^-1 D6-ciprofol) was added to 100 μL of plasma and mixed. Then, 300 μL of acetonitrile was added. […] Twenty-four SD rats were randomly and equally divided into three groups: the control group, psoralen group and clopidogrel group. […] The duration of loss of righting reflex (LORR) in each rat was measured. […] The plasma was processed and measured as described in Section 2.4.3, and DAS 2.0 software and a noncompartmental model were used to analyse the pharmacokinetic parameters. […]
measureName: AUC(0-t) (ng·h/mL)

compoundstructure=CC(C)c1cccc([C@H](C)C2CC2)c1O observed=260

----------
experiment: Pharmacokinetics of ciprofol in rats pretreated with psoralen, clopidogrel or CMC; format: in vivo, rat; settings: SD, rat, plasma, intravenous, 2.4 mg/kg, rats, Control group (0.5% CMC gavage 7 d), ciprofol 2.4 mg·kg^-1 i.v., n = 8; read-out: Vd
measureName: Vd (L/kg)

compoundstructure=CC(C)c1cccc([C@H](C)C2CC2)c1O u=L/kg observed=3.02

----------
test: Pharmacokinetics of ciprofol in rats pretreated with psoralen, clopidogrel or CMC; type: in vivo, rat; conditions: SD, rat, plasma, iv, 6.75 mg/kg, Clopidogrel(6.75mg/kg)group, ciprofol 2.4 mg·kg^-1 i.v., T 8.00 min; rats No.1-8 and Mean
measureName: concentration at 8 min (ng/mL)

compoundstructure=CC(C)c1cccc([C@H](C)C2CC2)c1O u=ng/mL observed=406

----------
test: Pharmacokinetics of ciprofol in rats pretreated with psoralen, clopidogrel or CMC; type: in vivo, rat; conditions: SD, rat, plasma, iv, 2.4 mg·kg^-1, Control (CMC-Na), ciprofol 2.4 mg·kg^-1 i.v., T 16.00 min; rats No.1-8 and Mean
measureName: concentration at 16 min

compoundstructure=CC(C)c1cccc([C@H](C)C2CC2)c1O observed="224 ng/mL"
